The reported numbers originate from PubChem BioAssay (NCI).

tested on: OVCAR-5 ovarian; assay: NCI tumour cell line growth inhibition, 48 h
This listing pairs molecules with measured TGI.

The examples below pair each entry with its known result.
Molecule	Assayed Target	Reported Value
C=CCc1ccc(O)c(-c2cc(C3Oc4c(-c5cc(CC=C)ccc5O)cc(O)cc4[C@@H]3CO)ccc2O)c1 (stereo partly specified)	OVCAR-5 ovarian	> 100 µM
Cc1ncc([N+](=O)[O-])n1CCNC(=O)CCCn1cnc([N+](=O)[O-])n1	OVCAR-5 ovarian	> 100 µM
CCc1cc2c(cc1CCCC(=O)O)CC1(Cc3ccc(C(=O)O)cc3C1)C2 (stereo unspecified)	OVCAR-5 ovarian	> 100 µM

Task: What does the data say about its TGI? Entry: [O-]c1on[n+]2c1c(Nc1ccc(Cl)cc1)nc1ccccc12
Result: > 100 µM

Task: What does the data say about its TGI? Entry: CN(C)C(=O)C1CCC(=C2C(=O)OC(C)(C)OC2=O)N1C (stereo unspecified)
Result: > 100 µM

Task: What does the data say about its TGI? Entry: Cc1c2ccncc2c(C)c2c1[nH]c1ccc(OC(C)(C)C)cc12
Result: 54.9 µM

---

test system: HCT-116 colon; experiment: NCI tumour cell line growth inhibition, 48 h
Property Measured: TGI

The examples below pair each entry with its known result.
Compound	Reported Value
Cn1c(COC(=O)NC2CCCCC2)c(COC(=O)NC2CCCCC2)c2ccc3cc(Cl)c(Cl)cc3c21	23.1 µM
O=C(Cc1ccccc1)N/N=C(\C1=Nc2ccc([N+](=O)[O-])cc2NC1O)C(O)c1ccc([N+](=O)[O-])cc1 (stereo not given)	> 100 µM
CC(C)CNC(=O)Cn1c2c(c3ccccc31)CCCC2	> 100 µM
COc1ccc2c(C(=O)O)cc3cc(OC)c(OC)cc3c2c1	> 100 µM
COc1ccccc1-c1c(C)nn2c(NCc3ccccn3)cc(C)nc12	> 50 µM
COc1cc2cc(Oc3ccc(NC(=O)c4ccc(Cl)c(C(F)(F)F)c4)cc3)c(C)nc2cc1OC	88.9 µM

Task: What does the data say about its TGI? Entry: Cc1cc(C2(c3cc(C)c(O)c(C(=O)O)c3)OS(=O)(=O)c3ccccc32)cc(C(=O)O)c1O
Result: > 100 µM

Task: What does the data say about its TGI? Entry: NCc1ccc(-n2c(-c3nonc3N)nc3cnccc32)cc1
Result: > 25 µM

---

This listing pairs molecules with measured TGI.
tested on: MDA-MB-231 breast; experiment: NCI tumour cell line growth inhibition, 48 h

The examples below pair each entry with its known result.
Molecule	TGI
N=c1oc2ccc(Cl)cc2cc1C(=O)Nc1ccccc1	> 100 µM
O=C1C(=O)N(C2CCCCC2)C(=S)N1C1CCCCC1	> 100 µM
COc1ccc(-c2c(C#N)c(S)n(C3OC(CO)C(O)C(O)C3O)c(=O)c2C#N)cc1 (stereo not given)	> 100 µM
c1ccc2c(c1)CCN2CCc1c[nH]c2ccccc12	> 10 µM

Now, please, on to the next molecule.
Task: What does the data say about its TGI? Entry: C[C@H](CSC(=O)c1ccccc1)C(=O)N1c2ccccc2C[C@H]1C(=O)O
Result: > 100 µM

---

tested on: SF-295 CNS; experiment: NCI tumour cell line growth inhibition, 48 h
This listing pairs compounds with measured TGI.

The examples below pair each entry with its known result.
Compound	Assayed Target	Reported Value
O=C1c2ccccc2C(=O)C1C(c1ccc([N+](=O)[O-])cc1)C1C(=O)c2ccccc2C1=O	SF-295 CNS	> 100 µM
CN(C)Cc1cc(N=Nc2ccccc2Cl)cc(CN(C)C)c1O	SF-295 CNS	> 100 µM
Cc1cccc(C)c1NC(=O)CCCC(=O)C1CCC/C1=N\NC(=O)C(=O)NN (stereo unspecified)	SF-295 CNS	> 100 µM

Task: What does the data say about its TGI? Entry: COc1ccc(COCC(Cn2ccnc2)OCc2ccc(C(=O)O)cc2)cc1 (stereo unspecified)
Result: > 100 µM

Task: What does the data say about its TGI? Entry: COc1ccc(C2NC3=C(CCCC3)C3(C#N)C(=O)N=C(N)C23C#N)cc1 (stereo unspecified)
Result: > 100 µM

Task: What does the data say about its TGI? Entry: CC1OC(c2ccccc2)=CC(OCc2ccccc2)[C@H]1OCc1ccccc1 (stereo partly specified)
Result: > 10 µM
